# TEST TARGET: human 5HT7 receptor (human, UniProt P34969 1-479)
# Sequence (P34969 whole entry): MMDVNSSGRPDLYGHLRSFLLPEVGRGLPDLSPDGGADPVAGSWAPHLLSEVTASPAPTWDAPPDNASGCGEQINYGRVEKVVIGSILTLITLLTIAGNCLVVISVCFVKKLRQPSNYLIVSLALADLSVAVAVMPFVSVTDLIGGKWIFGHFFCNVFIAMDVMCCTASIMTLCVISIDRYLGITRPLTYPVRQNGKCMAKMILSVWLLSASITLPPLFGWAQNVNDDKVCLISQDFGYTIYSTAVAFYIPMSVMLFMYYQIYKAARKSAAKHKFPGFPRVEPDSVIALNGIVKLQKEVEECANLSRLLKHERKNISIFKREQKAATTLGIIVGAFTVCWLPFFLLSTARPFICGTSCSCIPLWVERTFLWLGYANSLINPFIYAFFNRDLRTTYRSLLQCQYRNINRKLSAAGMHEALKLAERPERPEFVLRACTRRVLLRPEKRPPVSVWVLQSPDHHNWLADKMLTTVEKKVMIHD
# ASSAY TEXT: cell-based or functional assay
ASSAY METRIC: max Ca2+ signal, COS-7, FLIPR; agonist 5HT (fluorescence units)

>  <BINDER>
Human Gαq/s5 (other) MTLESIMACCLSEEAKEARRINDEIERQLRRDKRDARRELKLLLLGTGESGKSTFIKQMRIIHGSGYSDEDKRGFTKLVYQNIFTAMQAMIRAMDTLKIPYKYEHNKAHAQLVREVDVEKVSAFENPYVDAIKSLWNDPGIQECYDRRREYQLSDSTKYYLNDLDRVADPSYLPTQQDVLRVRVPTTGIIEYPFDLQSVIFRMVDVGGQRSERRKWIHCFENVTSIMFLVALSEYDQVLVESDNENRMEESKALFRTIITYPWFQNSSVILFLNKKDLLEEKIMYSHLVDYFPEYDGPQRDAQAAREFILKMFVDLNPDSDKIIYSHFTCATDTENIRFVFAAVKDTILQLNLKQYELL

>  <READOUT UNIT>
fluorescence units

>  <TEST VALUE>
0

$$$$

These entries and their values trace back to patent US7067277.
